Where do these numbers come from? They come from patent US20250122183A1.

Ki reference
- MEASURED_TARGET: KAT6A Full length enzyme (Homo sapiens (Human), UniProt Q92794)
- Sequence (Q92794 other isoform, or with tags, fused parts or gaps): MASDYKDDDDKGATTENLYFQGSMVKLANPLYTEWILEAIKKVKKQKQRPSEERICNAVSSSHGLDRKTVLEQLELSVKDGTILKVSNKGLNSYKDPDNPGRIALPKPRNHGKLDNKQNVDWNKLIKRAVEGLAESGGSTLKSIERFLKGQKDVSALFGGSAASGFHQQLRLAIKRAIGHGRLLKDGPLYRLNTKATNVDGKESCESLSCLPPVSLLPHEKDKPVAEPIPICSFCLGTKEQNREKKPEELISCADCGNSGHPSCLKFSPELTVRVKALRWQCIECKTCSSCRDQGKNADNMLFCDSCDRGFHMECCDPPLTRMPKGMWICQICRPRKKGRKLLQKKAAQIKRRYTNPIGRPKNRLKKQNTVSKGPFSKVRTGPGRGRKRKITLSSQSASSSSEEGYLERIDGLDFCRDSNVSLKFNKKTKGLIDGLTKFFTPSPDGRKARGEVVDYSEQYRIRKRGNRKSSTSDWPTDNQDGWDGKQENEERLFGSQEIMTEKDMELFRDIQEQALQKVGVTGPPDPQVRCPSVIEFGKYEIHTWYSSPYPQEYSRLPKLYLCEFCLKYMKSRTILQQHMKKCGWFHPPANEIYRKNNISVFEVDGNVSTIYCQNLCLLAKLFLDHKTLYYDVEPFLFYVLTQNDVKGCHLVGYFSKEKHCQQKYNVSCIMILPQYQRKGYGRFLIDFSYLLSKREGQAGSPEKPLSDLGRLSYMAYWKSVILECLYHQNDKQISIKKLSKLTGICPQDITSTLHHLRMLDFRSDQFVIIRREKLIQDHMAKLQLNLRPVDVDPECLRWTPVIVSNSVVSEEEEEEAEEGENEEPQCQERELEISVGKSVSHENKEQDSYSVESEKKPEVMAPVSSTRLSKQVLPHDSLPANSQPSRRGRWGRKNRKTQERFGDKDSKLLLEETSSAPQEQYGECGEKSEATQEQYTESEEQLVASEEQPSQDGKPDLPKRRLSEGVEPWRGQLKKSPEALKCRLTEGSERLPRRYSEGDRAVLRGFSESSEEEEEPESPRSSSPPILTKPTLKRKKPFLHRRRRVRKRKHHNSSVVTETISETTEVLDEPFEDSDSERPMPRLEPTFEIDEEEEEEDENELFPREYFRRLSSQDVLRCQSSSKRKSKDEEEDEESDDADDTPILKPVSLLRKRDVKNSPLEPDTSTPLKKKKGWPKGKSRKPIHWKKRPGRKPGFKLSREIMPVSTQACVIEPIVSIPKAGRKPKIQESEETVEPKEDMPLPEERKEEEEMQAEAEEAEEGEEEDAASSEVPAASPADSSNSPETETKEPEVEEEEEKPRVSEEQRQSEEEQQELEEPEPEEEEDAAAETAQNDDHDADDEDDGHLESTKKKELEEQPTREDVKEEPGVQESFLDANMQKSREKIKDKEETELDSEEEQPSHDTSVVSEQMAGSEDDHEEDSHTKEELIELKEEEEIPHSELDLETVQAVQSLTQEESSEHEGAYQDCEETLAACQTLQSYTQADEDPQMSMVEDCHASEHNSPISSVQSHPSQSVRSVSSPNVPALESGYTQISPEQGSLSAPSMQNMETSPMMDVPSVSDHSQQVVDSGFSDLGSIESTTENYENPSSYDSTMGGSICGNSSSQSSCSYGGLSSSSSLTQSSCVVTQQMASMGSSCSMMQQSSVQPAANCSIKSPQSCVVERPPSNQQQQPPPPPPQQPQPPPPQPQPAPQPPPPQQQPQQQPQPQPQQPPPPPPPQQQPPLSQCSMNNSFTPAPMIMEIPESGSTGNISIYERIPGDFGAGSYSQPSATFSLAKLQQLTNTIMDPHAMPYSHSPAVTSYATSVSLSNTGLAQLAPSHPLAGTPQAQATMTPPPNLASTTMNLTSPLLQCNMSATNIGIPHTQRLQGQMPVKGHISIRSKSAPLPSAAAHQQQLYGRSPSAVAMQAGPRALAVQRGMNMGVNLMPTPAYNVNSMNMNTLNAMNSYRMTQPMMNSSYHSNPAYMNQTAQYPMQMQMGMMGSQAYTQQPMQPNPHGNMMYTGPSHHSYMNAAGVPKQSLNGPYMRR
- TEST_DESCRIPTION: KAT6A assay (SAMDI-MS acetylation of H3 1-21 peptide)
- Type: biochemical
- CONDITION_SUMMARY: Morrison equation fit; replicate number in parentheses; read-out: KAT6A Ki (nM) (replicate number)

COMPOUND | MEASURED_TARGET | Ki, nM
CCc1cc(Nc2cc3onc(NS(=O)(=O)c4cccc(Oc5ccccc5C)c4)c3cc2OC)n[nH]1 [Example 125] | KAT6A Full length enzyme (Homo sapiens (Human), UniProt Q92794) | 48.6
COc1cc2c(NS(=O)(=O)c3ccc(C)cc3OCC(F)F)noc2cc1Nc1cc(C(C)C)[nH]n1 [Example 62] | KAT6A Full length enzyme (Homo sapiens (Human), UniProt Q92794) | 4.9
COc1cc2c(NS(=O)(=O)c3ccc(C)cc3OC)noc2cc1Nc1cc[nH]n1 [Example 23] | KAT6A Full length enzyme (Homo sapiens (Human), UniProt Q92794) | 0.9
CCc1cc(Nc2cc3onc(NS(=O)(=O)c4c(OC)cc(-c5ccc(C)cn5)cc4OC)c3cc2OC)[nH]n1 [Example 236] | KAT6A Full length enzyme (Homo sapiens (Human), UniProt Q92794) | 0.4
CCc1cc(Nc2cc3onc(NS(=O)(=O)c4ccc(C(=O)NCCCCCN)cc4OC)c3cc2OC)[nH]n1 [Example 96] | KAT6A Full length enzyme (Homo sapiens (Human), UniProt Q92794) | 7.3
COc1cc2c(NS(=O)(=O)c3c(OC)cc(-c4ncco4)cc3OC)noc2cc1Nc1cc(C2CC2)n[nH]1 [Example 08] | KAT6A Full length enzyme (Homo sapiens (Human), UniProt Q92794) | 1.2
COc1cc2c(NS(=O)(=O)c3c(OC)cccc3OC)noc2cc1Nc1[nH]nc(C)c1C(N)=O [Example 57] | KAT6A Full length enzyme (Homo sapiens (Human), UniProt Q92794) | 6.2

====

Consider the following compounds and their measured Ki readings.
- MEASURED_TARGET: KAT7+JADE1+EAF6+ING5 4 protein complex (Homo sapiens (Human), UniProt O95251)
- TEST_DESCRIPTION: KAT7 JADE1 assay (SAMDI-MS acetylation of H3 1-21 peptide)
- Format: biochemical
- CONDITION_SUMMARY: Morrison equation fit; replicate number in parentheses; read-out: KAT7 JADE1 Ki (nM) (replicate number)

COMPOUND | Ki, nM
COc1cc2c(NS(=O)(=O)c3c(OC)cc([C@H]4CCCN4C)cc3OC)noc2cc1Nc1cc(C2CC2)n[nH]1 | 8.4
CCN1CCOC(c2cc(OC)c(S(=O)(=O)Nc3noc4cc(Nc5cc(C6CC6)n[nH]5)c(OC)cc34)c(OC)c2)C1 (single isomer, unassigned) [Example 156] | 4
COc1cc2c(NS(=O)(=O)c3c(OC)cc(N4C(=O)CCC4C)cc3OC)noc2cc1Nc1cc(C2CC2)n[nH]1 (single isomer, unassigned) [Example 244] | 1.3

====

Ki values, listed per item
- MEASURED_TARGET: KAT7+JADE1+EAF6+ING5 4 protein complex (Homo sapiens (Human), UniProt O95251)
- TEST_DESCRIPTION: KAT7 JADE1 assay (SAMDI-MS acetylation of H3 1-21 peptide)
- Format: biochemical
- CONDITION_SUMMARY: Morrison equation fit; replicate number in parentheses; read-out: KAT7 JADE1 Ki (nM) (replicate number)

COMPOUND | Ki
CCOc1ccccc1S(=O)(=O)Nc1noc2cc(Nc3cc(C(C)C)[nH]n3)c(OC)cc12 | 203 nM
COc1cc2c(NS(=O)(=O)c3c(OC)cc([C@H]4CCCO4)cc3OC)noc2cc1Nc1cc(C2CC2)n[nH]1 | 6.9 nM
COc1cc2c(NS(=O)(=O)c3ccc(C)cc3OC)noc2cc1Nc1cc[nH]n1 | 212 nM
COc1cc2c(NS(=O)(=O)c3c(OC)cc(C4CCCN(CC(F)F)C4)cc3OC)noc2cc1Nc1cc(C2CC2)n[nH]1 (single isomer, unassigned) [Example 168] | 2.7 nM
COc1cccc(OC2CC2)c1S(=O)(=O)Nc1noc2cc(Nc3cc(C4CC4)n[nH]3)c(F)c(OC)c12 | 32.3 nM
COc1cc2c(NS(=O)(=O)c3c(OC)cc(-c4ncccn4)cc3OC)noc2cc1Nc1cc(C2CC2)n[nH]1 | 3.7 nM
COc1cc2c(NS(=O)(=O)c3c(OC)cc(CN4CCC(F)(F)C4)cc3OC)noc2cc1Nc1cc(C2CC2)n[nH]1 | 4 nM

====

- MEASURED_TARGET: KAT6A Full length enzyme (Homo sapiens (Human))
- TEST_DESCRIPTION: KAT6A assay (SAMDI-MS acetylation of H3 1-21 peptide)
- Format: biochemical
- CONDITION_SUMMARY: Morrison equation fit; replicate number in parentheses; read-out: KAT6A Ki (nM) (replicate number)

COMPOUND | MEASURED_TARGET | Ki / nM
COc1cc2c(NS(=O)(=O)c3c(OC)cc(-c4ncc(N(C)C)cn4)cc3OC)noc2cc1Nc1cc(C2CC2)n[nH]1 [Example 218] | KAT6A Full length enzyme (Homo sapiens (Human)) | 0.1
COc1cc2c(NS(=O)(=O)c3c(OC)cc(CN4CC(F)C4)cc3OC)noc2cc1Nc1cc(C2CC2)n[nH]1 [Example 202] | KAT6A Full length enzyme (Homo sapiens (Human)) | 0.7
CCOc1cc(F)ccc1S(=O)(=O)Nc1noc2cc(Nc3cc(C4CC4)n[nH]3)c(F)c(OC)c12 [Example 76] | KAT6A Full length enzyme (Homo sapiens (Human)) | 11.1
COCc1cc(Nc2cc3onc(NS(=O)(=O)c4c(OC)cccc4OC)c3cc2OC)[nH]n1 [Example 91] | KAT6A Full length enzyme (Homo sapiens (Human)) | 2.3
CCc1cc(Nc2cc3onc(NS(=O)(=O)c4c(OC)cc(-c5ccn(C)n5)cc4OC)c3cc2OC)[nH]n1 [Example 230] | KAT6A Full length enzyme (Homo sapiens (Human)) | 1
COc1cc2c(NS(=O)(=O)c3c(OC)cc(-c4ncc(C#N)cn4)cc3OC)noc2cc1Nc1cc(C2CC2)n[nH]1 [Example 224] | KAT6A Full length enzyme (Homo sapiens (Human)) | 1.5
COc1cc2c(NS(=O)(=O)c3c(OC)cc(CN4CC(C)C4)cc3OC)noc2cc1Nc1cc(C2CC2)n[nH]1 [Example 200] | KAT6A Full length enzyme (Homo sapiens (Human)) | 2.1

====

Some compounds, each annotated with its measured Ki.
- MEASURED_TARGET: KAT7+JADE1+EAF6+ING5 4 protein complex (Homo sapiens (Human))
- TEST_DESCRIPTION: KAT7 JADE1 assay (SAMDI-MS acetylation of H3 1-21 peptide)
- Type: biochemical
- CONDITION_SUMMARY: Morrison equation fit; replicate number in parentheses; read-out: KAT7 JADE1 Ki (nM) (replicate number)
MEASURED_METRIC: Ki (nM)

COMPOUND | MEASURED_TARGET | MEASURED_METRIC | NUMERIC_READOUT
COc1cc2c(NS(=O)(=O)c3c(OC)cc(-c4ccccn4)cc3OC)noc2cc1Nc1cc(C2CC2)n[nH]1 | KAT7+JADE1+EAF6+ING5 4 protein complex (Homo sapiens (Human)) | Ki | 8.1
COc1cc2c(NS(=O)(=O)c3c(OC)cccc3OC)noc2cc1Nc1[nH]nc(C)c1C#N | KAT7+JADE1+EAF6+ING5 4 protein complex (Homo sapiens (Human)) | Ki | 804
COc1cc2c(NS(=O)(=O)c3c(OC)cc(-c4cc5n(n4)CCOC5)cc3OC)noc2cc1Nc1cc(C2CC2)n[nH]1 | KAT7+JADE1+EAF6+ING5 4 protein complex (Homo sapiens (Human)) | Ki | 4
COc1cc2c(NS(=O)(=O)c3c(OC)cccc3OC)noc2cc1Nc1cc(C(F)F)n[nH]1 | KAT7+JADE1+EAF6+ING5 4 protein complex (Homo sapiens (Human)) | Ki | 32.2
COc1cc2c(NS(=O)(=O)c3c(OC)cc(C(C)N4CC(F)C4)cc3OC)noc2cc1Nc1cc(C2CC2)[nH]n1 (single isomer, unassigned) [Example 210] | KAT7+JADE1+EAF6+ING5 4 protein complex (Homo sapiens (Human)) | Ki | 6.6
COc1cccc(OC)c1S(=O)(=O)Nc1noc2cc(Nc3cc(C4CC4)n[nH]3)c(F)c(OC)c12 | KAT7+JADE1+EAF6+ING5 4 protein complex (Homo sapiens (Human)) | Ki | 20.9
COc1cc2c(NS(=O)(=O)c3c(OC)cccc3OC)noc2cc1Nc1ncc(C)cn1 | KAT7+JADE1+EAF6+ING5 4 protein complex (Homo sapiens (Human)) | Ki | 2820
COc1cc2c(NS(=O)(=O)c3c(OC)cccc3OC)noc2cc1Nc1cc(C(C)(C)C)n[nH]1 | KAT7+JADE1+EAF6+ING5 4 protein complex (Homo sapiens (Human)) | Ki | 98
CCOc1cc(C)c(F)cc1S(=O)(=O)Nc1noc2cc(Nc3cc(C(C)C)[nH]n3)c(OC)cc12 | KAT7+JADE1+EAF6+ING5 4 protein complex (Homo sapiens (Human)) | Ki | 119
CCOc1cccc(OC)c1S(=O)(=O)Nc1noc2cc(Nc3cc(C(C)C)[nH]n3)c(OC)cc12 | KAT7+JADE1+EAF6+ING5 4 protein complex (Homo sapiens (Human)) | Ki | 60.1
COc1cc2c(NS(=O)(=O)c3c(OC)cc(C4CC(F)CCN4C)cc3OC)noc2cc1Nc1cc(C2CC2)[nH]n1 (centres unmarked) [Example 193] | KAT7+JADE1+EAF6+ING5 4 protein complex (Homo sapiens (Human)) | Ki | 12
